Species: Rattus norvegicus
assay-notes: Open TG-GATES - Regimen: Single
Type: toxicity, organism-based, Sprague-Dawley
Parameters: regimen Single, gender Male, age 6 weeks
experimental-setup: in vivo, po, 0 mg/kg, 6 h, tissue Blood, route gavage, dose level Control
Listed here are molecules together with their documented Hb.
Provide a numeric answer, followed by its unit.

Ask | Given "CCc1oc2ccccc2c1C(=O)c1cc(Br)c(O)c(Br)c1" , respond with its Hb.
Reply | 14.1 g/dL

###

Species on record: Rattus norvegicus
assay-notes: Open TG-GATES - Regimen: Daily Repeat
Type: toxicity, organism-based, Sprague-Dawley
Design: regimen Daily Repeat, gender Male, age 6 weeks
experimental-setup: in vivo, po, 0 mg/kg, […], tissue Blood, route gavage, dose level Control, time 7 day
reported-endpoint: Bas (%)
Express the result in % but write the number alone.

Take a look at these entries with their results.
>  <molecule>
CCCCc1oc2ccccc2c1C(=O)c1cc(I)c(OCCN(CC)CC)c(I)c1 [AMIODARONE]

>  <quantity-unit>
%

>  <readout-number>
0

$$$$
>  <molecule>
CCc1oc2ccccc2c1C(=O)c1cc(Br)c(O)c(Br)c1 [BENZBROMARONE]

>  <quantity-unit>
%

>  <readout-number>
0

$$$$
>  <molecule>
ClC(Cl)(Cl)Cl [CARBON TETRACHLORIDE]

>  <quantity-unit>
%

>  <readout-number>
0

$$$$
>  <molecule>
OCCOCCN1CCN(C(c2ccccc2)c2ccc(Cl)cc2)CC1 (stereo unspecified) [HYDROXYZINE]

>  <quantity-unit>
%

>  <readout-number>
0

$$$$
>  <molecule>
CN(C)C(=N)N=C(N)N [METFORMIN]

>  <quantity-unit>
%

>  <readout-number>
0

$$$$
>  <molecule>
CCC1(c2ccccc2)C(=O)NC(=O)NC1=O [PHENOBARBITAL]

>  <quantity-unit>
%

>  <readout-number>
0

$$$$

Ask | Name the recorded Bas of the item CC(C)N(CCC(C(N)=O)(c1ccccc1)c1ccccn1)C(C)C (stereo unspecified) [DISOPYRAMIDE] in your answer.
Reply | 0

Ask | Return Bas for the following molecule: CN(C)CCC=C1c2ccccc2COc2ccccc21 [DOXEPIN]
Reply | 0.2

Ask | Return reported Bas. Input molecule: O=NN(CCCl)C(=O)NC1CCCCC1 [LOMUSTINE]
Reply | 0

Ask | Annotate the molecule CC1=C(CC(=O)O)c2cc(F)ccc2/C1=C\c1ccc([S+](C)[O-])cc1 (stereo unspecified) with its measured Bas.
Reply | 0.2

Ask | Dear colleague, please send me the reported Bas for CC[C@H]1[C@@H]2C[C@H]3[C@@H]4N(C)c5ccccc5[C@]45C[C@@H]([C@@H]2[C@H]5O)N3[C@@H]1O [AJMALINE] when you can.
Reply | 0
